Each recorded value in this set is attributed to patent US20220340547A1.

assay target: Ba/F3 EGFR-D770-N771ins_SVD (Homo sapiens, UniProt P00533, DUP768-770, cells depend on it)
Sequence (P00533 with tags, fused parts or gaps DUP768-770): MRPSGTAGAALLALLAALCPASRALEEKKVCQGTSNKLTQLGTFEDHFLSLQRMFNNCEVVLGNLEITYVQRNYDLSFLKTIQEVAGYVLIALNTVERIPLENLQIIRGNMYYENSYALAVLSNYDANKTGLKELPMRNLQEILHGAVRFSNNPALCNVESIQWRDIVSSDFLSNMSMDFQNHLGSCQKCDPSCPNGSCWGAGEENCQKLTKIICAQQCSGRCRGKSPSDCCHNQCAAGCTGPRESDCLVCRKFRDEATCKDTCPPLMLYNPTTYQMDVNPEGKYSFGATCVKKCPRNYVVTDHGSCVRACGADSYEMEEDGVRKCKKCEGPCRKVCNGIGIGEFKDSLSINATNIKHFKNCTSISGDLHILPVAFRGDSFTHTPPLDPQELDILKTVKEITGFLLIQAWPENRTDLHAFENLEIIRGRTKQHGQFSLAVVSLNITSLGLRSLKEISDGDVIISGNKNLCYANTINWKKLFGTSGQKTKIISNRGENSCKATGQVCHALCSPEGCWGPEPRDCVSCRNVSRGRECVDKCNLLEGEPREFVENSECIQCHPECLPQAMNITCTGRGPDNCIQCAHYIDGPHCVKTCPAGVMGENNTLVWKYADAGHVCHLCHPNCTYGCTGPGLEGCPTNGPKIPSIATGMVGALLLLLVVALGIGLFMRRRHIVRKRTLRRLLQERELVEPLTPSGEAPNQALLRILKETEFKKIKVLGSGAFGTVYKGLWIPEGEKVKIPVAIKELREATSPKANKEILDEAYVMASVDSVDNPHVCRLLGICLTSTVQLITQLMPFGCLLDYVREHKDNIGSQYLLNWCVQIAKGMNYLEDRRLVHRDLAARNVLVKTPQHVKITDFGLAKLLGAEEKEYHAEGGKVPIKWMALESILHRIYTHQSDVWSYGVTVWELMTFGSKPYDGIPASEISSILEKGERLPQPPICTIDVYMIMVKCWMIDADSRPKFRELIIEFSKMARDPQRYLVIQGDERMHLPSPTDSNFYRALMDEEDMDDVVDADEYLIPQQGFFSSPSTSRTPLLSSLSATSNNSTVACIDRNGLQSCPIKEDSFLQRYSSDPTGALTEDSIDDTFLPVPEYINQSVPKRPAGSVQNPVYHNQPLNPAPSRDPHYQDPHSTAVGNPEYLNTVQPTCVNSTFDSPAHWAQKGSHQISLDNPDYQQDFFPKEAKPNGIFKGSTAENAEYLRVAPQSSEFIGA
experiment notes: Proliferation of Ba/F3 EGFR mutant cell line (CellTiter-Glo)
Format: cell-based, mouse
protocol conditions: 72 h to 144 h, read-out: Ba/F3 EGFR-D770-N771ins_SVD IC50
Please assign Not met whenever GI50 is at or above 30 nM, and Met whenever it is below.

Query: API: query returns whether the compound falls strictly under 30 nM in GI50. Query: C=CC(=O)Nc1cc(Nc2ncc(C#N)c(-c3cn(C4CC4)c4ccccc34)n2)c(OC)cc1N1CC[C@@H](N(C)C)C1
Reply: Not met

Query: API: query returns whether the compound falls strictly under 30 nM in GI50. Query: C=CC(=O)Nc1cc(Nc2ncc(-c3ncco3)c(-c3cn(C4CC4)c4ccccc34)n2)c(OC)cc1N1CC[C@@H](N(C)C)C1
Reply: Met

Query: API: query returns whether the compound falls strictly under 30 nM in GI50. Query: C=CC(=O)Nc1cc(Nc2ncc(-c3ncco3)c(-c3cn(C)c4ccccc34)n2)c(OC)cc1N(C)CCN(C)C
Reply: Met

Query: API: query returns whether the compound falls strictly under 30 nM in GI50. Query: C=CC(=O)Nc1cc(Nc2ncc(-c3ncco3)c(-c3cn(C4CC4)c4ccccc34)n2)c(OC)cc1N1CC[C@H](N(C)C)C1
Reply: Not met

Query: API: query returns whether the compound falls strictly under 30 nM in GI50. Query: C=CC(=O)Nc1cc(Nc2ncc(-c3ncco3)c(-c3cn(C4CC4)c4ccccc34)n2)c(OC)cc1N1CC(N(C)C)C1
Reply: Not met

Query: API: query returns whether the compound falls strictly under 30 nM in GI50. Query: C=CC(=O)Nc1cc(Nc2ncc(C#N)c(-c3cn(C4COC4)c4cc(OC)ccc34)n2)c(OC)cc1N(C)CCN(C)C
Reply: Met

* * *

assay target: Ba/F3 EGFR-D770-N771ins_SVD (Homo sapiens, UniProt P00533, DUP768-770, cells depend on it)
experiment notes: Proliferation of Ba/F3 EGFR mutant cell line (CellTiter-Glo)
Assay type: cell-based, mouse
protocol conditions: 72 h to 144 h, read-out: Ba/F3 EGFR-D770-N771ins_SVD IC50
Please assign FALSE whenever GI50 is at or above 30 nM, and TRUE whenever it is below.

Query: API: query returns whether the molecule falls strictly under 30 nM in GI50. Query: C=CC(=O)Nc1cc(Nc2ncc(-c3cnn(C)c3)c(-c3cn(C4CC4)c4ccccc34)n2)c(OC)cc1N(C)CCN(C)C
Reply: TRUE

Query: API: query returns whether the molecule falls strictly under 30 nM in GI50. Query: C=CC(=O)Nc1cc(Nc2ncc(-c3cccnc3)c(-c3cn(C4CC4)c4ccccc34)n2)c(OC)cc1N1C[C@H]2CN(C)C[C@H]2C1
Reply: TRUE

Query: API: query returns whether the molecule falls strictly under 30 nM in GI50. Query: C=CC(=O)Nc1cc(Nc2ncc(-c3ncco3)c(-c3cn(C4CC4)c4ccccc34)n2)c(OC)cc1N1CC(N2CCCC2)C1
Reply: TRUE

Query: API: query returns whether the molecule falls strictly under 30 nM in GI50. Query: C=CC(=O)Nc1cc(Nc2ncc(C#N)c(-c3cn(C4CC4)c4cc(F)ccc34)n2)c(OC)cc1N(C)CCN(C)C
Reply: FALSE

Query: API: query returns whether the molecule falls strictly under 30 nM in GI50. Query: C=CC(=O)Nc1cc(Nc2ncc(-c3ncco3)c(-c3cn(C4CC4)c4ccccc34)n2)c(OC)cc1N1C[C@@H]2CCN(C)[C@@H]2C1 (relative stereo)
Reply: FALSE

Query: API: query returns whether the molecule falls strictly under 30 nM in GI50. Query: C=CC(=O)Nc1cc(Nc2ncc(-c3ccn(C)n3)c(-c3cn(C4CC4)c4ccccc34)n2)c(OC)cc1N1C[C@H]2CN(C)C[C@H]2C1
Reply: FALSE
